Test: AUC (0 to infinity) in Wistar rat liver at 10 mg/kg, po by HPLC analysis
Type: ADME, organism-based
Parameters: dose 10 mg/kg, route oral, time infinity

| Molecule | AUC(0-inf) [ng·h/mL] |
| --- | --- |
| CCCCC1=NC2(CCCC2)C(=O)N1Cc1ccc2c(ccn2-c2ccccc2-c2nnn[nH]2)c1 | 3320 |

---

Test: MRT (0 to 72 hrs) in Wistar rat kidney at 30 mg/kg, po by HPLC analysis
Assay type: ADME, organism-based

| Molecule | MRT last [h] |
| --- | --- |
| CCCCC1=NC2(CCCC2)C(=O)N1Cc1ccc2c(ccn2-c2ccccc2-c2nnn[nH]2)c1 | 24.9 |

---

Assay: MRT (0 to infinity) in Wistar rat Heart at 10 mg/kg, po by HPLC analysis
Type: ADME, organism-based

| Molecule | Units Symbol | MRT inf |
| --- | --- | --- |
| CCCCC1=NC2(CCCC2)C(=O)N1Cc1ccc2c(ccn2-c2ccccc2-c2nnn[nH]2)c1 | h | 12 |

---

Assay: MRT (0 to infinity) in Wistar rat spleen at 10 mg/kg, po by HPLC analysis
Type: ADME, organism-based
Readout Type: MRT inf

| Molecule | Result |
| --- | --- |
| CCCCC1=NC2(CCCC2)C(=O)N1Cc1ccc2c(ccn2-c2ccccc2-c2nnn[nH]2)c1 | 30.4 h |

---

Test: AUC (0 to infinity) in Wistar rat spleen at 15 mg/kg, po by HPLC analysis
Assay type: ADME, organism-based
Design: dose 15 mg/kg, route oral, time infinity
Readout Type: AUC(0-inf)

| Molecule | Readout Type | Result |
| --- | --- | --- |
| CCCCC1=NC2(CCCC2)C(=O)N1Cc1ccc2c(ccn2-c2ccccc2-c2nnn[nH]2)c1 | AUC(0-inf) | 12000 ng·h/mL |

---

Test: Toxicity in ig dosed ICR mouse assessed as mortality after 2 weeks
Type: organism-based
Settings: in vivo, po
Readout Type: LD50 at 336 h (mg/kg)

| Molecule | Recorded Number |
| --- | --- |
| CCCCC1=NC2(CCCC2)C(=O)N1Cc1ccc2c(ccn2-c2ccccc2-c2nnn[nH]2)c1 | 1550 |

---

Assay: MRT (0 to 72 hrs) in Wistar rat plasma at 10 mg/kg, po by HPLC analysis
Format: ADME, organism-based

| Molecule | Units Symbol | MRT last |
| --- | --- | --- |
| CCCCC1=NC2(CCCC2)C(=O)N1Cc1ccc2c(ccn2-c2ccccc2-c2nnn[nH]2)c1 | h | 7.87 |

---

Assay: MRT (0 to infinity) in Wistar rat lung at 15 mg/kg, po by HPLC analysis
Format: ADME, organism-based

| Molecule | MRT inf |
| --- | --- |
| CCCCC1=NC2(CCCC2)C(=O)N1Cc1ccc2c(ccn2-c2ccccc2-c2nnn[nH]2)c1 | 3.64 h |

---

Test: Half life in Wistar rat spleen at 10 mg/kg, po by HPLC analysis
Assay type: ADME, organism-based

| Molecule | Units Symbol | half-life |
| --- | --- | --- |
| CCCCC1=NC2(CCCC2)C(=O)N1Cc1ccc2c(ccn2-c2ccccc2-c2nnn[nH]2)c1 | h | 17.9 |

---

Assay: AUC (0 to 72 hrs) in Wistar rat Heart at 30 mg/kg, po by HPLC analysis
Assay type: ADME, organism-based
Set-up: time < 72 hr, dose 30 mg/kg, route oral
Readout Type: AUC(0-t) at 72 h (ng·h/mL)

| Molecule | Readout Type | Recorded Number |
| --- | --- | --- |
| CCCCC1=NC2(CCCC2)C(=O)N1Cc1ccc2c(ccn2-c2ccccc2-c2nnn[nH]2)c1 | AUC(0-t) at 72 h | 7360 |

---

Assay: MRT (0 to 72 hrs) in Wistar rat brain at 10 mg/kg, po by HPLC analysis
Type: ADME, organism-based
Readout Type: MRT last

| Molecule | Result |
| --- | --- |
| CCCCC1=NC2(CCCC2)C(=O)N1Cc1ccc2c(ccn2-c2ccccc2-c2nnn[nH]2)c1 | 8.1 h |

---

Assay: MRT (0 to 72 hrs) in Wistar rat brain at 15 mg/kg, po by HPLC analysis
Type: ADME, organism-based

| Molecule | Units Symbol | MRT last |
| --- | --- | --- |
| CCCCC1=NC2(CCCC2)C(=O)N1Cc1ccc2c(ccn2-c2ccccc2-c2nnn[nH]2)c1 | h | 11.6 |

---

Assay: MRT (0 to 72 hrs) in Wistar rat liver at 10 mg/kg, po by HPLC analysis
Assay type: ADME, organism-based

| Molecule | MRT last [h] |
| --- | --- |
| CCCCC1=NC2(CCCC2)C(=O)N1Cc1ccc2c(ccn2-c2ccccc2-c2nnn[nH]2)c1 | 4.93 |

---

Experiment: MRT (0 to 72 hrs) in Wistar rat spleen at 15 mg/kg, po by HPLC analysis
Assay type: ADME, organism-based

| Molecule | MRT last, h |
| --- | --- |
| CCCCC1=NC2(CCCC2)C(=O)N1Cc1ccc2c(ccn2-c2ccccc2-c2nnn[nH]2)c1 | 9.71 |

---

Experiment: AUC (0 to 72 hrs) in Wistar rat plasma at 15 mg/kg, po by HPLC analysis
Format: ADME, organism-based
Set-up: dose 15 mg/kg, time < 72 hr, route oral

| Molecule | Units Symbol | AUC(0-t) at 72 h |
| --- | --- | --- |
| CCCCC1=NC2(CCCC2)C(=O)N1Cc1ccc2c(ccn2-c2ccccc2-c2nnn[nH]2)c1 | ng·h/mL | 26500 |

---

Test: AUC (0 to infinity) in Wistar rat plasma at 15 mg/kg, po by HPLC analysis
Type: ADME, organism-based
Parameters: dose 15 mg/kg, route oral, time infinity
Readout Type: AUC(0-inf) (ng·h/mL)

| Molecule | Units Symbol | Recorded Number |
| --- | --- | --- |
| CCCCC1=NC2(CCCC2)C(=O)N1Cc1ccc2c(ccn2-c2ccccc2-c2nnn[nH]2)c1 | ng·h/mL | 26100 |

---

Experiment: MRT (0 to infinity) in Wistar rat lung at 10 mg/kg, po by HPLC analysis
Format: ADME, organism-based
Readout Type: MRT inf (h)

| Molecule | Units Symbol | Recorded Number |
| --- | --- | --- |
| CCCCC1=NC2(CCCC2)C(=O)N1Cc1ccc2c(ccn2-c2ccccc2-c2nnn[nH]2)c1 | h | 10.6 |

---

Assay: MRT (0 to 72 hrs) in Wistar rat kidney at 15 mg/kg, po by HPLC analysis
Format: ADME, organism-based

| Molecule | MRT last |
| --- | --- |
| CCCCC1=NC2(CCCC2)C(=O)N1Cc1ccc2c(ccn2-c2ccccc2-c2nnn[nH]2)c1 | 19.4 h |

---

Test: Tmax in Wistar rat Heart at 15 mg/kg, po by HPLC analysis
Format: ADME, organism-based
Readout Type: Tmax (h)

| Molecule | Recorded Number |
| --- | --- |
| CCCCC1=NC2(CCCC2)C(=O)N1Cc1ccc2c(ccn2-c2ccccc2-c2nnn[nH]2)c1 | 4.67 |

---

Assay: AUC (0 to 72 hrs) in Wistar rat liver at 10 mg/kg, po by HPLC analysis
Format: ADME, organism-based
Design: time < 72 hr, dose 10 mg/kg, route oral

| Molecule | AUC(0-t) at 72 h (ng·h/mL) |
| --- | --- |
| CCCCC1=NC2(CCCC2)C(=O)N1Cc1ccc2c(ccn2-c2ccccc2-c2nnn[nH]2)c1 | 3070 |

---

Assay: Cmax in Wistar rat plasma at 30 mg/kg, po by HPLC analysis
Type: ADME, organism-based
Parameters: dose 30 mg/kg, route oral
Readout Type: Cmax (ng/mL)

| Molecule | Readout Type | Recorded Number |
| --- | --- | --- |
| CCCCC1=NC2(CCCC2)C(=O)N1Cc1ccc2c(ccn2-c2ccccc2-c2nnn[nH]2)c1 | Cmax | 5760 |

---

Experiment: AUC (0 to infinity) in Wistar rat brain at 30 mg/kg, po by HPLC analysis
Format: ADME, organism-based
Parameters: dose 30 mg/kg, route oral, time infinity
Readout Type: AUC(0-inf) (ng·h/mL)

| Molecule | Recorded Number |
| --- | --- |
| CCCCC1=NC2(CCCC2)C(=O)N1Cc1ccc2c(ccn2-c2ccccc2-c2nnn[nH]2)c1 | 1790 |

---

Assay: Half life in Wistar rat Heart at 15 mg/kg, po by HPLC analysis
Type: ADME, organism-based

| Molecule | half-life [h] |
| --- | --- |
| CCCCC1=NC2(CCCC2)C(=O)N1Cc1ccc2c(ccn2-c2ccccc2-c2nnn[nH]2)c1 | 15.8 |

---

Test: Displacement of 125I-Ang2 from AT1 receptor in SPF Sprague-Dawley rat vascular smooth muscle cell membranes after 150 mins by gamma counting method
List of Ki values.
Readout Type: Ki (nM)

| Compound | Recorded Number |
| --- | --- |
| CCCCC1=NC2(CCCC2)C(=O)N1Cc1cccc2c1ccn2-c1ccccc1-c1nnn[nH]1 | 2.21 |
| CCCCCC1=NC2(CCCC2)C(=O)N1Cc1cccc2c1ccn2-c1ccccc1-c1nnn[nH]1 | 4.67 |
| CCCCCC1=NC2(CCCC2)C(=O)N1Cc1ccc2c(ccn2-c2ccccc2-c2nnn[nH]2)c1 | 3.42 |
| CCCC1=NC2(CCCC2)C(=O)N1Cc1cccc2c1ccn2-c1ccccc1-c1nnn[nH]1 | 5.61 |
| CCCCC1=NC2(CCCC2)C(=O)N1Cc1ccc2c(ccn2-c2ccccc2-c2nnn[nH]2)c1 | 0.91 |
| CCCC1=NC2(CCCC2)C(=O)N1Cc1ccc2c(ccn2-c2ccccc2-c2nnn[nH]2)c1 | 5.07 |
| CCCCCCC1=NC2(CCCC2)C(=O)N1Cc1ccc2c(ccn2-c2ccccc2-c2nnn[nH]2)c1 | 4.67 |
| CCCCC1=NC2(CCCC2)C(=O)N1Cc1ccc(-c2ccccc2-c2nnn[nH]2)cc1 [IRBESARTAN] | 1.05 |
